Test: Clinical multiple-dose pharmacokinetics of elagolix in healthy subjects
Format: in vivo, human
Conditions: human, plasma, oral, 200 mg
measure-name: half-life (h)
Answers are plain numbers, in h.

Query :: Please look up its half-life: COc1cccc(-c2c(C)n(Cc3c(F)cccc3C(F)(F)F)c(=O)n(C[C@H](NCCCC(=O)O)c3ccccc3)c2=O)c1F
Result :: 4.29

###

Assay: Clinical multiple-dose pharmacokinetics of elagolix in healthy subjects
Assay type: in vivo, human
Conditions: human, plasma, oral, 150 mg, Cmax, 150 mg QD (N = 6), Day 1, Observed, healthy subjects
measure-name: Cmax (ng/mL)
One number for each entry, in ng/mL.

Query :: Please look up its Cmax: COc1cccc(-c2c(C)n(Cc3c(F)cccc3C(F)(F)F)c(=O)n(C[C@H](NCCCC(=O)O)c3ccccc3)c2=O)c1F
Result :: 507
